Value source: the supplement of paper PMC7156485

Tested on: TDF
Experiment: H1.0 immunofluorescence intensity relative to DMSO (% of DMSO); higher = stronger H1.0 induction, active = 120 or more;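 also: TDF is a line of transformed human dermal fibroblasts of mesenchymal origin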
Conditions: concentration: 10 µM; 24 h
Documented H1.0 immunofluorescence intensity across a set of molecules

{"molecule": "O=C1CCCC2C3CCCN4CCCC(CN12)C34 (centres undefined) [Matrine]", "testedSystem": "TDF", "H1.0 immunofluorescence intensity": "99.3 (inactive)"}
{"molecule": "CCCC[N+]1(C)C2CC(OC(=O)C(CO)c3ccccc3)CC1C1OC12 (centres undefined) [Scopolamine N-butyl]", "testedSystem": "TDF", "H1.0 immunofluorescence intensity": "91.4 (inactive)"}
{"molecule": "CC12NC(Cc3ccccc31)c1ccccc12.O=C(O)C=CC(=O)O (single isomer, unassigned; (+)) [(+)-MK-801 hydrogen maleate]", "testedSystem": "TDF", "H1.0 immunofluorescence intensity": "98.6 (inactive)"}
{"molecule": "CS(=O)(=O)O.Oc1ccc2c3c1OC1c4oc5ccccc5c4CC4(O)C(C2)N(CC2CC2)CCC314 (centres undefined) [Naltriben methanesulfonate]", "testedSystem": "TDF", "H1.0 immunofluorescence intensity": "92.4 (inactive)"}

---

Tested on: TDF
Test: H1.0 immunofluorescence intensity relative to DMSO (% of DMSO); higher = stronger H1.0 induction, active = 120 or more
Settings: concentration: 10 µM; 24 h
Would you mind labelling by H1.0 immunofluorescence intensity? At or over 100 is true (1), under is false (0).

{"molecule": "Cl.NCCc1c[nH]c2ccccc12 [Tryptamine hydrochloride]", "assignedClass": "false (0)"}
{"molecule": "C=CCN1CCC23c4c5ccc(O)c4OC2C(=NN=C2CCC4(O)C6Cc7ccc(O)c8c7C4(CCN6CC=C)C2O8)CCC3(O)C1C5.Cl.Cl (stereo not drawn) [Naloxonazine dihydrochloride]", "assignedClass": "true (1)"}
{"molecule": "COc1ccc2c(c1OC)C(=O)OC2C1c2cc3c(cc2CCN1C)OCO3 (stereo not drawn)", "assignedClass": "false (0)"}
{"molecule": "CC1CC=CC2C3OC3(C)C(C)C3C(Cc4ccccc4)NC(=O)C23OC(=O)OC=CC(C)(O)C1=O (stereo not drawn)", "assignedClass": "true (1)"}

---

System: HCC1569
Assay: H1.0 immunofluorescence intensity relative to DMSO (% of DMSO); higher = stronger H1.0 induction, active = 140 or more
Conditions: concentration: 10 µM; 24 h
Would you mind labelling by H1.0 immunofluorescence intensity? At or over 100 is condition met, under is condition not met.

{"molecule": "C=CCN1CCC23c4c5ccc(O)c4OC2C(=O)CCC3(O)C1C5.Cl (configuration not stated) [Naloxone hydrochloride]", "assignedClass": "condition not met"}
{"molecule": "CP(=O)(O)CCCN.Cl", "assignedClass": "condition met"}
{"molecule": "CCCCCCCCCCCCCC(=O)OC1C(C)C2(O)C(C=C(CO)CC3(O)C(=O)C(C)=CC32)C2C(C)(C)C12OC(C)=O (configuration not stated) [Phorbol 12-myristate 13-acetate]", "assignedClass": "condition met"}
{"molecule": "CCN(CCCl)Cc1ccccc1Br.Cl [DSP-4 hydrochloride]", "assignedClass": "condition not met"}
{"molecule": "CC(=O)N1N=C(c2ccc(N)cc2)c2cc3c(cc2C[C@H]1C)OCO3", "assignedClass": "condition not met"}
{"molecule": "CCCCCC=CCC=CCCCCCCCC(=O)NCCO [Anandamide (18:2,n-6)]", "assignedClass": "condition not met"}
{"molecule": "COc1ccc2c(c1OC)C(=O)OC2C1c2cc3c(cc2CCN1C)OCO3 (single isomer, unassigned; (+)) [(+)-Hydrastine]", "assignedClass": "condition not met"}
{"molecule": "CCCN1CCCC(c2cccc(O)c2)C1.Cl (stereo not drawn) [S(-)-3PPP hydrochloride]", "assignedClass": "condition met"}
{"molecule": "CCCC[N+]1(C)C2CC(OC(=O)C(CO)c3ccccc3)CC1C1OC12.[Br-] (configuration not stated) [Scopolamine N-butylbromide]", "assignedClass": "condition not met"}
{"molecule": "CC(C)N(CCC(C(N)=O)(c1ccccc1)c1ccccn1)C(C)C.O=P(O)(O)O (configuration not stated) [Disopyramide phosphate]", "assignedClass": "condition not met"}
{"molecule": "CC1C(=O)OC2CCN3CC=C(COC(=O)C(C)(O)C1(C)O)C23 (configuration not stated)", "assignedClass": "condition not met"}
{"molecule": "Cc1[nH]c2ccc(O)cc2c1CCN.O=C(O)C=CC(=O)O [2-Methyl-5-hydroxytryptamine maleate]", "assignedClass": "condition not met"}
{"molecule": "Br.CC1NCCc2cc(O)c(O)cc21 (configuration not stated)", "assignedClass": "condition not met"}

---

System: HCC1569
Assay: H1.0 immunofluorescence intensity relative to DMSO (% of DMSO); higher = stronger H1.0 induction, active = 140 or more
Conditions: concentration: 10 µM; 24 h
Documented H1.0 immunofluorescence intensity across a set of molecules
endpointLabel: H1.0 immunofluorescence intensity

{"molecule": "CN1CC[C@@]2(C)c3cc(OC(=O)Nc4ccccc4)ccc3N(C)[C@@H]12", "testedSystem": "HCC1569", "endpointLabel": "H1.0 immunofluorescence intensity", "result": "102 (inactive)"}
{"molecule": "COc1ccc2c3c1OC1C(=O)CCC4(O)C(C2)N(CC2CC2)CCC314.Cl (single isomer, unassigned; (-)) [(-)-3-Methoxynaltrexone hydrochloride]", "testedSystem": "HCC1569", "endpointLabel": "H1.0 immunofluorescence intensity", "result": "86.7 (inactive)"}
{"molecule": "CNC(=O)Oc1ccc2c(c1)C1(C)CCN(C)C1N2C (stereo not drawn) [Physostigmine]", "testedSystem": "HCC1569", "endpointLabel": "H1.0 immunofluorescence intensity", "result": "94.1 (inactive)"}
{"molecule": "C[N+]1(C)C2CCC1CC(OC(=O)c1c[nH]c3ccccc13)C2.[I-] (stereo not drawn) [3-Tropanylindole-3-carboxylate methiodide]", "testedSystem": "HCC1569", "endpointLabel": "H1.0 immunofluorescence intensity", "result": "114 (inactive)"}
{"molecule": "C1CCc2nnnn2CC1 [Pentylenetetrazole]", "testedSystem": "HCC1569", "endpointLabel": "H1.0 immunofluorescence intensity", "result": "98.1 (inactive)"}
{"molecule": "Cl.NCCc1c[nH]c2ccccc12 [Tryptamine hydrochloride]", "testedSystem": "HCC1569", "endpointLabel": "H1.0 immunofluorescence intensity", "result": "97.2 (inactive)"}
{"molecule": "CCN1CC2(COC)CCC(O)C34C5CC6C(OC)CC(O)(C(CC23)C14)C5C6OC(C)=O (stereo not drawn) [Condelphine]", "testedSystem": "HCC1569", "endpointLabel": "H1.0 immunofluorescence intensity", "result": "102 (inactive)"}
{"molecule": "CCN(CC)C(=O)NC1CC2c3cccc4[nH]cc(c34)CC2N(C)C1 (stereo not drawn) [R(+)-Terguride]", "testedSystem": "HCC1569", "endpointLabel": "H1.0 immunofluorescence intensity", "result": "99.5 (inactive)"}

---

System: TDF
Experiment: H1.0 immunofluorescence intensity relative to DMSO (% of DMSO); higher = stronger H1.0 induction, active = 120 or more
Settings: concentration: 10 µM; 24 h
Labels: True (active), False (inactive)

{"compound": "CC(C)C1(NC(=O)C2CC3c4cccc5[nH]cc(c45)CC3N(C)C2)OC2(O)C3CCCN3C(=O)C(Cc3ccccc3)N2C1=O.CS(=O)(=O)O (stereo not drawn) [Dihydroergocristine methanesulfonate]", "assignedClass": "False"}
{"compound": "CC(C)N(CCC(C(N)=O)(c1ccccc1)c1ccccn1)C(C)C (stereo not drawn) [Disopyramide]", "assignedClass": "False"}
{"compound": "O=C(O)c1nn(Cc2ccc(Cl)cc2Cl)c2ccccc12", "assignedClass": "False"}
{"compound": "Br.CN1C2CC(OC(=O)C(CO)c3ccccc3)CC1C(O)C2 (stereo not drawn)", "assignedClass": "False"}
{"compound": "COc1ccc2c(c1)C(=Cc1cnc[nH]1)C(=O)N2", "assignedClass": "False"}
{"compound": "NC(CCCCCP(=O)(O)O)C(=O)O (stereo not drawn) [D(-)-2-Amino-7-phosphonoheptanoic acid]", "assignedClass": "False"}
{"compound": "CCCC(=O)OC1C(C)C2(O)C(C=C(CO)CC3(O)C(=O)C(C)=CC32)C2C(C)(C)C12OC(=O)CCC (stereo not drawn) [Phorbol 12,13-dibutyrate]", "assignedClass": "True"}
{"compound": "CC(N)Cc1c[nH]c2ccc(OCc3cccs3)cc12.Cl (stereo not drawn)", "assignedClass": "False"}

---

Test system: HCC1569
Test: H1.0 immunofluorescence intensity relative to DMSO (% of DMSO); higher = stronger H1.0 induction, active = 140 or more
Conditions: concentration: 10 µM; 24 h
Labels: class 1 = active, class 0 = inactive

{"compound": "OC1CN2CCCC(O)C2C1O (centres undefined) [Swainsonine]", "assignedClass": "class 0"}
{"compound": "CC=C1CN2CCC34C(=C(CC=O)C1CC23)Nc1ccccc14 (centres undefined) [Norfluorocurarine]", "assignedClass": "class 0"}
{"compound": "CCCCCC=CCC=CCC=CCC=CCCCCCC(=O)NCCO [Anandamide (22:4,n-6)]", "assignedClass": "class 0"}
{"compound": "O=C1NC(=O)c2c1c1c3ccccc3[nH]c1c1[nH]c3ccccc3c21", "assignedClass": "class 0"}
{"compound": "CCCC(=O)OC1C(C)C2(O)C(C=C(CO)CC3(O)C(=O)C(C)=CC32)C2C(C)(C)C12OC(=O)CCC (centres undefined) [Phorbol 12,13-dibutyrate]", "assignedClass": "class 1"}
{"compound": "N#CC(C#N)=Cc1ccc([N+](=O)[O-])c(O)c1 [Tyrphostin AG 126]", "assignedClass": "class 0"}
{"compound": "CC(C)(C)c1cc(C=C(C#N)C#N)cc(Br)c1O", "assignedClass": "class 0"}
{"compound": "CC1=C(O)C(=O)C2OC2C1=O (single isomer, unassigned; (-))", "assignedClass": "class 0"}
{"compound": "O=C1C=C2C(=CCOC2O)O1 (centres undefined) [Patulin]", "assignedClass": "class 0"}
